system: CP185; experiment: qHTS profiling for inhibitors of Plasmodium falciparum proliferation (AID 504749); also: nearly all actives have a fitted effect of over 60% in size; conditions: P. falciparum in erythrocytes, SYBR Green DNA, 72 h; series mostly up to 28.7 µM
Records with an inconclusive call do not appear. Calls of active or inactive are those of the source. Calls follow the shape of the dose curve; as a rule, active = well fitted inhibition curve with a large enough effect; inconclusive = small, poorly fitted or top-dose-only effect; inactive = flat fitted curve, though single readings scatter.
Valid outcomes are listed here; reply with one: active, inactive

Consider the worked cases shown below.
molecule: COc1cc([C@H]2Oc3cc([C@H]4Oc5cc(O)cc(O)c5C(=O)[C@@H]4O)ccc3O[C@@H]2CO)ccc1O
category label: inactive
--
molecule: CCCN(CCc1cccs1)[C@H]1CCc2c(O)cccc2C1
category label: active
--
molecule: CCOC(=O)[C@H](CCc1ccccc1)N[C@@H](C)C(=O)N1[C@H](C(=O)O)C[C@H]2CCCC[C@@H]21
category label: inactive

### Prompt Hello, I am checking results. What call was entered for Cc1cccc(C)c1NC(=O)CN1CCCC1 ?
### Response inactive

### Prompt Hello, I am checking results. What call was entered for O=C(Nc1cccc(C2=NCCN2)c1)Nc1cccc(C2=NCCN2)c1 ?
### Response active

### Prompt Hello, I am checking results. What call was entered for CCN(CC)CCNC(=O)COc1ccc(OC)cc1 ?
### Response inactive

### Prompt Hello, I am checking results. What call was entered for O=c1[nH]c(=O)n([C@H]2C[C@H](O)[C@@H](CO)O2)cc1F ?
### Response inactive

### Prompt Hello, I am checking results. What call was entered for N#CCC(=O)NN ?
### Response inactive

### Prompt Hello, I am checking results. What call was entered for OC1C(O)C(O)C(O)C(O)C1O (configuration not stated) ?
### Response inactive

### Prompt Hello, I am checking results. What call was entered for COc1cc(O)c(C(=O)c2ccccc2)cc1S(=O)(=O)O ?
### Response inactive

### Prompt Hello, I am checking results. What call was entered for CCC(C(=O)OCCOCCN(CC)CC)c1ccccc1 (configuration not stated) ?
### Response inactive

### Prompt Hello, I am checking results. What call was entered for CCc1oc2ccccc2c1C(=O)c1cc(I)c(O)c(I)c1 ?
### Response inactive

### Prompt Hello, I am checking results. What call was entered for CCCCC(CC)COC(=O)/C=C/c1ccc(OC)cc1 (configuration not stated) ?
### Response inactive

### Prompt Hello, I am checking results. What call was entered for Cc1c[nH]c2ccccc12 ?
### Response inactive

### Prompt Hello, I am checking results. What call was entered for COc1cc(NS(=O)(=O)c2ccc(N)cc2)ncn1 ?
### Response inactive

### Prompt Hello, I am checking results. What call was entered for CCOc1ccccc1C(N)=O ?
### Response inactive

### Prompt Hello, I am checking results. What call was entered for O=C(O)Cc1csc(-c2ccc(Cl)cc2)n1 ?
### Response inactive

Values from PubChem BioAssay (NCATS)
